# assayedTarget: T1, RsAgo K506A (Rhodobacter sphaeroides (ATCC 17025D-5), UniProt A4WYU7 1-777, K506A)
# T1 sequence: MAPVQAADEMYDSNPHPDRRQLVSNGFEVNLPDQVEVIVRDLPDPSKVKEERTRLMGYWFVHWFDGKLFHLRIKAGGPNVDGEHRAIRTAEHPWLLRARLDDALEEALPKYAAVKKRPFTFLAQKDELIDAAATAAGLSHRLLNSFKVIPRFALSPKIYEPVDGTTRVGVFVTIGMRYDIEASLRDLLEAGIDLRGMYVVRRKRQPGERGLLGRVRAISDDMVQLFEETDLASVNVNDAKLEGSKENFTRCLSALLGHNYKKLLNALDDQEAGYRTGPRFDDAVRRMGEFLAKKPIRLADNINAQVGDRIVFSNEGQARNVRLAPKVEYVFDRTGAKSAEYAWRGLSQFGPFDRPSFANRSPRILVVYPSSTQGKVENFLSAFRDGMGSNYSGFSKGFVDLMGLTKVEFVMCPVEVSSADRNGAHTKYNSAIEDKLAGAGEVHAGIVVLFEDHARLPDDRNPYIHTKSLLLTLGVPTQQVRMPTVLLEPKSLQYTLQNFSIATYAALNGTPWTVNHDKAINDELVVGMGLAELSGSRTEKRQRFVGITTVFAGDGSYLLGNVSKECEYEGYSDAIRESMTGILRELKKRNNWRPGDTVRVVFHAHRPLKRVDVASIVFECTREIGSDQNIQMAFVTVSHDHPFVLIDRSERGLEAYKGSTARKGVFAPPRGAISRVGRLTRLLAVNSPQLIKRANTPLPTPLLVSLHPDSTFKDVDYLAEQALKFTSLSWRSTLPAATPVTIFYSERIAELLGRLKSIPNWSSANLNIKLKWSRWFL
# assayText: fluorescence polarization; 5 mM Mg2+; FP: 20 mM HEPES-KOH pH 7.5, 200 mM NaCl, 5 mM MgCl2, 0.01 mg/ml E. coli total tRNA, 0.01% NP-40, 10 pM probe, 25 C; EMSA: 20 mM HEPES-KOH pH 7.5, 200 mM NaCl, 5
parameterMeasured: Kd (nM)
Give the value, in units of nM, as a plain number.

Q. Quick one: Kd of UUACAACCUACUACCUCG (ssRNA, 5'-phosphate) [5'P-RNA (5'U-RNA), FAM] ?
A. 1030
